// provenance: PubChem BioAssay

# experiment: differential killing of epithelial or mesenchymal cells, primary screen, imaging, PC-3E GFP, TEM4-18 mCherry, co-culture (AID 1345086);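 note: cells exposed to compound for 72 h before imaging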
# settings: imaging cell counts, measured here: mesenchymal TEM4-18 mCherry cell survival, at 1 µM
Under this convention, 1 (yes) denotes normalised cell number strictly below 1 and 0 (no) denotes normalised cell number at or above 1.

• CC/C=C1C=C(/C=C/CO)C(=O)O/1 = 0 (no)
• C=C1C(=O)OC(C(=O)OC)C1CCCCCCCC(C)O (stereo unspecified) = 0 (no)
• COc1cc2c(c3oc4ccccc4c(=O)c13)[C@@H]1C=CO[C@@H]1O2 = 1 (yes)

Shifting focus to the molecule that follows.
// query Please indicate whether the reported normalised cell number of CN1C2CCCC1CC(NC(=O)c1nn(C)c3ccccc13)C2 (stereo unspecified) is strictly below 1.
// result 1 (yes)
